- system: KRAS G12V (Homo sapiens, UniProt P01116, G12V)
- Construct: SW620-KRAS (G12V)-HiBit-KI cell (Pharmaron); host or cells: SW620-KRAS (G12V)-HiBit-KI cells (HiBiT knock-in at the endogenous KRAS locus)
- Sequence (P01116 1-188 isoform P01116-2 G12V): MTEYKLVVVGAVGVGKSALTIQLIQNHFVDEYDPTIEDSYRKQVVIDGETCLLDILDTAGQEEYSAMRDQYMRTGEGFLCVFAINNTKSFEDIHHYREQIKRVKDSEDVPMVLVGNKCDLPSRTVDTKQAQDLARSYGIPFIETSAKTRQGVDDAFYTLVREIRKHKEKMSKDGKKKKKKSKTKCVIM
- procedure details: KRAS G12V HiBit assay
- Format: cell-based
- assay conditions: SW620-KRAS (G12V)-HiBit-KI cells, compound treatment for 24 hours, class symbols
- Description: Day 1. […] Rinsed cultivated cells in T-75 flasks with 5 mL PBS (Solarbio, P1020-500). […] Inactivated trypsin by adding excessive serum containing medium. Harvested the cells from flask into cell culture medium and counted the cell number. Day 2. Test compounds were dissolved at 0.3 mM in DMSO (Solarbio, D8371) as stock solution. […] The degradation activity was calculated using the following formula: […]
DC50: recorded values

// solved cases for DC50 follow
compound: CCc1cccc2cc(O)cc(-c3cc4nc(OC[C@@]56CCCN5[C@H](COC(=O)N5CCC7(CC5)CC(N5CCC(c8ccc9c(c8)n(C)c(=O)n9C8CCC(=O)NC8=O)CC5)C7)CC6)nc(N5CCC[C@@](C)(O)C5)c4cn3)c12 (stereo partly shown) [Compound 487]
DC50: < 10 nM
--
compound: CCc1c(F)ccc2cc(O)cc(-c3ncc4c(N5CCC[C@@](C)(N)C5)nc(OC[C@@]56CCCN5[C@H](COC(=O)N5CCC7(CC5)CC(N5CCC(c8ccc9c(c8)n(C)c(=O)n9C8CCC(=O)NC8=O)CC5)C7)CC6)nc4c3F)c12 (stereo partly shown) [Compound 479]
DC50: > 100 nM
--
compound: CCc1c(F)ccc2cc(O)cc(-c3ncc4c(N5CCC(F)(F)CC5)nc(OC[C@@]56CCCN5[C@H](COC(=O)N5CCC7(CC5)CC(N5CCC(c8ccc9c(c8)n(C)c(=O)n9C8CCC(=O)NC8=O)CC5)C7)CC6)nc4c3F)c12 (stereo partly shown) [Compound 357]
DC50: > 100 nM

Shifting focus to the compound that follows.
Summary line: CCc1c(F)ccc2cc(O)cc(-c3ncc4c(N5CCC[C@@](C)(O)C5)nc(OC[C@]56CCCN5[C@H](COC(=O)N5CCC(Oc7ccc8c(c7)n(C)c(=O)n8C7CCC(=O)NC7=O)CC5)CC6)nc4c3F)c12 (stereo partly shown) [Compound 330] , KRAS G12V (Homo sapiens, UniProt P01116, G12V), reported DC50 = > 100 nM

---

Measured DC50, listed per entry for reference.
- system: KRAS G12V (Homo sapiens, UniProt P01116, G12V)
- Construct: SW620-KRAS (G12V)-HiBit-KI cell (Pharmaron); host or cells: SW620-KRAS (G12V)-HiBit-KI cells (HiBiT knock-in at the endogenous KRAS locus)
- procedure details: KRAS G12V HiBit assay
- Type: cell-based
- assay conditions: SW620-KRAS (G12V)-HiBit-KI cells, compound treatment for 24 hours, class symbols

These solved cases illustrate the format of a correct answer.
compound: C#Cc1c(F)ccc2cc(O)cc(-c3ncc4c(N5CCC[C@@](C)(O)C5)nc(OCC5(CN6CCN(Cc7ccc8c(c7)n(C)c(=O)n8C7CCC(=O)NC7=O)CC6)CC5)nc4c3F)c12 (stereo partly drawn) [Compound 42]
DC50: > 100 nM
--
compound: CCc1c(F)ccc2cccc(-c3ncc4c(N5CCC[C@@](C)(O)C5)nc(OC[C@@]56CCCN5[C@H](COC(=O)NCCOCCOCCOCCOc5ccc7c(c5)n(C)c(=O)n7C5CCC(=O)NC5=O)CC6)nc4c3F)c12 (stereo partly drawn) [Compound 105]
DC50: > 100 nM

We next turn to a different compound, shown below.
C#Cc1c(F)ccc2cc(O)cc(-c3ncc4c(N5CCC[C@@](C)(O)C5)nc(OCC5(CN6CCC(CN7CCN(c8ccc9c(c8)n(C)c(=O)n9C8CCC(=O)NC8=O)CC7)CC6)CC5)nc4c3F)c12 (stereo partly drawn) [Compound 25] on KRAS G12V (Homo sapiens, UniProt P01116, G12V) gives DC50 = < 10 nM
